TGI values, listed per item
Tested on: MALME-3M melanoma
measurement notes: NCI tumour cell line growth inhibition, 48 h
Form entry: value (µM) — number only.

INPUT: State its TGI: CCN1CC2=C(OC(N)=C(C#N)C2c2ccc(Cl)cc2)/C(=C/c2ccc(Cl)cc2)C1 (configuration not stated)
OUTPUT: 84.7

###

Tested on: SF-295 CNS
measurement notes: NCI tumour cell line growth inhibition, 48 h; in the data active means GI50 below about 0.43 µM; inactive means the rest
Choose the fitting class; nothing outside label 1 (active), label 0 (inactive) is accepted.

smiles string	target under test	assigned category
CN1CCN(c2ccc3nc(-c4[nH]ncc4Nc4ncnc5[nH]ccc45)[nH]c3c2)CC1	SF-295 CNS	label 0

INPUT: How was CC[O-].CC[O-].[O-]c1ccccc1C=NC12CC3CC(CC(C3)C1)C2.[O-]c1ccccc1C=NC12CC3CC(CC(C3)C1)C2.[Ti+4] classified in this test?
OUTPUT: label 0

INPUT: How was Cc1cc2c(cc1Cl)SC(=Nc1ccc(Cl)cc1)N(S(=O)(=O)c1ccc(Br)s1)S2(=O)=O classified in this test?
OUTPUT: label 0

INPUT: How was CN(C)CCN1C(=O)c2cccc3cc(N)cc(c23)C1=O classified in this test?
OUTPUT: label 0

INPUT: How was COc1ccc(-c2cc(=O)c3c(C)ccnc3[nH]2)cc1 classified in this test?
OUTPUT: label 0

INPUT: How was Clc1cccc(-c2cc(-c3ccc4c(c3)OCCO4)[nH]n2)c1 classified in this test?
OUTPUT: label 0

INPUT: How was CCCCCOC(=O)c1c(C)[nH]c(/C=C2\N=C(c3ccc[nH]3)C=C2OC)c1C classified in this test?
OUTPUT: label 1
